System: K562
Experiment: Cytotoxicity against human K562 cells after 72 hrs by SRB assay
Format: functional, cell-based
Reported Conditions: K562, 72 h
Quantity Name: IC50 (µM)

> print(dat)
                            compound.smiles  recorded.measurement
1  C=C1C(=O)[C@@]23[C@H](O)C[C@H]4[C@@](C)(CCC[C@]4(C)C=O)[C@@H]2C[C@@H]1[C@H](O)[C@H]3O                  13.6
2  C=C1C(=O)[C@]23C[C@@H](O)[C@H]1C[C@H]2[C@]1(C)CCC[C@](C)(CO)[C@H]1C[C@H]3O                    28
3  C=C1C(=O)[C@@]23[C@H](O)C[C@@H]4[C@@](C)(CO)CCC[C@@]4(C)[C@@H]2C[C@@H]1[C@H](O)[C@H]3O                  24.6
